Experimental System: human Y4 receptor (human, UniProt P50391 1-375)
Sequence (P50391 whole entry): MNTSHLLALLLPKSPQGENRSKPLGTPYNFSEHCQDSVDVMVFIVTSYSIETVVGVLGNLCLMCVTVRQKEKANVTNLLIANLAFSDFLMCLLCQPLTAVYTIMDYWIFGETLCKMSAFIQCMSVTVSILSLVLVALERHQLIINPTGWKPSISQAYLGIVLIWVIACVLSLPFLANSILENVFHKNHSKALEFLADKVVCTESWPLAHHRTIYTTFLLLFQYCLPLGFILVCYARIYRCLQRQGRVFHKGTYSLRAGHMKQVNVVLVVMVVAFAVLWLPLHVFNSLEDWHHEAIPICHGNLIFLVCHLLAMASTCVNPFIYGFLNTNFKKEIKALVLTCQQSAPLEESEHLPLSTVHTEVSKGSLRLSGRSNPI
Method: 125I-PP displacement
IC50 reference
Property Label: IC50 (nM)

PLEPEYPGDNATPEELAKYAAELRRYINKLTRPRY [4058677]: 0.138
GAPLEPHYPGDNATPEEMAKYAAELRRYINKLTRPRY [4058698]: 0.072
APLEPKYPGDDATPEELAHYYSELRRYINKLTRPRY [4058707]: 0.089

Each recorded value in this set is attributed to patent US20100279930A1.
